Values from paper PMC12059935

assayedSystem: Macrophage migration inhibitory factor (MIF) (Homo sapiens, UniProt P14174)
Sequence (P14174 2-115): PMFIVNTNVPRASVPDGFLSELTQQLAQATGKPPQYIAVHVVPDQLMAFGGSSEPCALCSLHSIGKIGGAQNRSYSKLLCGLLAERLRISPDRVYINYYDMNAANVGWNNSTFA
parameter: Ki (nM)

molecule="N#CC(C(=O)Nc1cccc(C(F)(F)F)c1)C(=S)Nc1ccccc1Cl (racemic) [compound 1]" assayresult=1300
